The origin of these recorded values is PubChem BioAssay (NCI).

test system: BT-549 breast; assay: NCI-60 one-dose screen, 48 h; conditions: 10 µM unless noted
About 83,000 compounds went through this panel and 20% of them were active in at least one assay; those are over-represented in the sample as a whole. The source made the active and inactive calls. Rule for the calls: active = growth percent below 10; inactive = the rest.
Classes used: active, inactive

CCOC(=O)C#Cc1c(C(=O)OCC)nnn1Cc1ccc(C(F)(F)F)cc1    inactive
CNC(=O)c1ccccc1Nc1nc(Nc2cc(OC)c(OC)c(OC)c2)ncc1Br    active
Clc1ccc(-c2cc(-c3ccccc3)nc(NCCNc3ccnc4cc(Cl)ccc34)n2)cc1    inactive
CCN(CC)CCN1C(=O)c2cccc3c(/C=C/CN4C(=O)c5cccc6cccc(c56)C4=O)ccc(c23)C1=O    inactive
O=C1c2cccc3cccc(c23)C(=O)N1C/C=C/c1ccc2c3c(cccc13)C(=O)N(CCO)C2=O    inactive
CC[N+]1(CC)CC[N+]2(CCCC(C)CC2)CC1 (centres undefined)    inactive
CC1(C)CC(=O)c2c(nn(-c3ccc(Br)cc3)c2-c2cn(-c3ccccc3)nc2-c2cccnc2)C1    inactive
COC(=O)c1c2c(c(C)[n+]([O-])c1C)C(=O)C(NCc1cccc(Cl)c1)=CC2=O    inactive
COc1cc(OC)c(/C=C/C(=O)c2c(O)cc(OC)c(C3CCN(C)CC3)c2OC)c(OC)c1    active
